Each entry below carries its reported minimum inhibitory concentration.
- System: Histophilus somni
- assay.overview: minimum inhibitory concentration (MIC)
- applied.conditions: isolate (source animal id): 100

smiles.data: COc1cc(Cc2cnc(N)nc2N)cc(OC)c1OC.Cc1cc(NS(=O)(=O)c2ccc(N)cc2)no1
minimum inhibitory concentration: ≤ 2 µg/mL
--
smiles.data: CC1(C)S[C@@H]2[C@H](NC(=O)[C@H](N)c3ccccc3)C(=O)N2[C@H]1C(=O)O
minimum inhibitory concentration: ≤ 0.25 µg/mL

Now look at this entry.
[ask] Give minimum inhibitory concentration for the following compound: "CN1C[C@@H]2C[C@H]1CN2c1cc2c(cc1F)c(=O)c(C(=O)O)cn2C1CC1"
[reply] ≤ 0.12 µg/mL

====

- Tested on: Enterococcus spp.
- assay.overview: minimum inhibitory concentration (MIC)
- applied.conditions: isolate (source animal id): 42
measurement.kind: minimum inhibitory concentration

// worked examples, minimum inhibitory concentration included
smiles.data: CCCN1C[C@H](C)[C@@H](O)[C@](C)(O)[C@@H](CC)OC(=O)[C@H](C)[C@@H](O[C@H]2C[C@@](C)(OC)[C@@H](O)[C@H](C)O2)[C@H](C)[C@@H](O[C@@H]2O[C@H](C)C[C@H](N(C)C)[C@H]2O)[C@](C)(O)C[C@H]1C
minimum inhibitory concentration: ≤ 1 µg/mL
--
smiles.data: CN(C)[C@@H]1C(O)=C(C(N)=O)C(=O)[C@@]2(O)C(O)=C3C(=O)c4c(O)cccc4[C@@](C)(O)[C@H]3C[C@@H]12
minimum inhibitory concentration: > 8 µg/mL
--
smiles.data: C=C[C@]1(C)C[C@@H](OC(=O)CSCCN(CC)CC)[C@]2(C)[C@H](C)CC[C@]3(CCC(=O)[C@H]32)[C@@H](C)[C@@H]1O
minimum inhibitory concentration: > 32 µg/mL

Shift focus to the following entry.
[ask] Output reported minimum inhibitory concentration of the compound "CCCNC[C@]1(O)[C@H](C)O[C@@H](O[C@H]2[C@H](C)[C@@H](O[C@@H]3O[C@H](C)C[C@H](N(C)C)[C@H]3O)[C@](C)(O)C[C@@H](C)CN[C@H](C)[C@@H](O)[C@](C)(O)[C@@H](CC)OC(=O)[C@@H]2C)C[C@@]1(C)OC" on Enterococcus spp..
[reply] ≤ 8 µg/mL

====

- Tested on: Pasteurella multocida
- assay.overview: minimum inhibitory concentration (MIC)
- applied.conditions: isolate (source animal id): 234
A collection of compounds and their measured minimum inhibitory concentration

smiles.data: CCC[C@@H]1C[C@@H](C(=O)N[C@@H]([C@H]2O[C@H](SC)[C@H](O)[C@@H](O)[C@H]2O)[C@H](C)Cl)N(C)C1
assay.target: Pasteurella multocida
minimum inhibitory concentration: > 16 µg/mL

smiles.data: CN1C[C@@H]2C[C@H]1CN2c1cc2c(cc1F)c(=O)c(C(=O)O)cn2C1CC1
assay.target: Pasteurella multocida
minimum inhibitory concentration: > 1 µg/mL

Now, please, on to the next compound.
[ask] Dear colleague, please send me the reported minimum inhibitory concentration for "CC1(C)S[C@@H]2[C@H](NC(=O)Cc3ccccc3)C(=O)N2[C@H]1C(=O)O" when you can.
[reply] ≤ 0.12 µg/mL

====

- System: Mannheimia haemolytica
- assay.overview: minimum inhibitory concentration (MIC)
- applied.conditions: isolate (source animal id): 201
measurement.kind: minimum inhibitory concentration

Example cases with answers are listed next.
compound: CC1(C)S[C@@H]2[C@H](NC(=O)[C@H](N)c3ccccc3)C(=O)N2[C@H]1C(=O)O [Ampicillin]
minimum inhibitory concentration: > 16 µg/mL

compound: CC1(C)S[C@@H]2[C@H](NC(=O)Cc3ccccc3)C(=O)N2[C@H]1C(=O)O [Penicillin]
minimum inhibitory concentration: > 8 µg/mL

[ask] Recall and state the measured minimum inhibitory concentration for CC[C@H]1OC(=O)C[C@@H](O)[C@H](C)[C@@H](O[C@@H]2O[C@H](C)[C@@H](O[C@H]3C[C@@](C)(O)[C@@H](O)[C@H](C)O3)[C@H](N(C)C)[C@H]2O)[C@@H](CC=O)C[C@@H](C)C(=O)/C=C/C(C)=C/[C@@H]1CO[C@@H]1O[C@H](C)[C@@H](O)[C@@H](OC)[C@H]1OC [Tylosin] .
[reply] > 32 µg/mL
